System: Polyunsaturated fatty acid lipoxygenase ALOX15 (Homo sapiens) | Read-out: IC50 | Origin: multiple publications
Field format: number, assumed nM, no unit text.

Use the examples below as a reference point.
Q: Enter recorded IC50 with Polyunsaturated fatty acid lipoxygenase ALOX15 (Homo sapiens) for Cc1cn(C(=O)NCCc2cccs2)nc1C(=O)Nc1ccc(F)cc1Cl here.
Result: 3710

Q: Enter recorded IC50 with Polyunsaturated fatty acid lipoxygenase ALOX15 (Homo sapiens) for COc1ccc(-c2cc3cc(Cl)c(Cl)cc3[nH]2)cc1NC(=S)Nc1cccc(C(=O)O)c1 here.
Result: 254

Q: Enter recorded IC50 with Polyunsaturated fatty acid lipoxygenase ALOX15 (Homo sapiens) for COc1ccc(-c2cc3ccccc3[nH]2)cc1NCc1ccc(O)c([N+](=O)[O-])c1 here.
Result: 420

Switching to the query record.
Q: Enter recorded IC50 with Polyunsaturated fatty acid lipoxygenase ALOX15 (Homo sapiens) for O=C(Nc1ccc([N+](=O)[O-])cn1)c1cc(Cl)[nH]n1 here.
Result: 248

----------
System: Polyunsaturated fatty acid lipoxygenase ALOX15 (Homo sapiens, UniProt P16050) | Read-out: IC50 | Origin: multiple publications

Use the examples below as a reference point.
Q: // Input: Cc1nc(NC(=O)c2cc(Cl)[nH]n2)ccc1Br . Output its IC50 only.
Result: 0.32 µM

Q: // Input: O=C(Nc1cc(Cl)ccc1Cl)c1cc[nH]n1 . Output its IC50 only.
Result: 1.1 µM

Q: // Input: CCCCOc1ccc(S(=O)(=O)n2nc(C(=O)Nc3ccc(F)cc3Cl)cc2C)cc1 . Output its IC50 only.
Result: 8.33 µM

Q: // Input: COc1ccc(-c2cc3ccccc3[nH]2)cc1NC(=S)Nc1ccc(C(=O)O)cc1 . Output its IC50 only.
Result: 0.304 µM

***
Q: // Input: COc1ccc(S(=O)(=O)n2nc(C(=O)Nc3ccc(F)cc3Cl)cc2C)cc1 . Output its IC50 only.
Result: 5.87 µM

----------
System: Polyunsaturated fatty acid lipoxygenase ALOX15 (Homo sapiens) | Read-out: pIC50 | Origin: multiple publications
Convention used: pIC50 is expressed as -log10 of the molar concentration.

Use the examples below as a reference point.
Q: // Input: COc1ccc(-c2cc3cc(F)c(F)cc3[nH]2)cc1N . Output its pIC50 only.
Result: 7.28

Q: // Input: COc1ccc(-c2cc3ccccc3[nH]2)cc1NCc1ccc([N+](=O)[O-])c(O)c1 . Output its pIC50 only.
Result: 6.63

Q: // Input: Cc1cc(Cl)ccc1NC(=O)c1cc[nH]n1 . Output its pIC50 only.
Result: 6.12

Q: // Input: O=C(Nc1ccc(F)cn1)c1n[nH]c(C(F)(F)F)c1Cl . Output its pIC50 only.
Result: 6.51

Q: // Input: CCOC(=O)CNC(=O)n1nc(C(=O)Nc2ccc(F)cc2Cl)cc1C . Output its pIC50 only.
Result: 6.20

***
Q: // Input: COc1ccc(-c2cc3cc(F)c(F)cc3[nH]2)cc1NC(=S)NCCO . Output its pIC50 only.
Result: 7.48

Q: // Input: COc1ccc(-c2cc3ccccc3[nH]2)cc1NC(=S)Nc1ccc(CC(=O)O)cc1 . Output its pIC50 only.
Result: 5.84

Q: // Input: COc1ccc(-c2cc3cc(F)c(F)cc3[nH]2)cc1NS(=O)(=O)c1cc(Cl)cc(Cl)c1 . Output its pIC50 only.
Result: 7.14

Q: // Input: COc1ccc(-c2cc3cc(F)c(F)cc3[nH]2)cc1NC(=S)NCCNC(=O)OC(C)(C)C . Output its pIC50 only.
Result: 7.60

Q: // Input: COc1ccc(-c2cc3cc(Cl)c(Cl)cc3[nH]2)cc1N . Output its pIC50 only.
Result: 6.44

Q: // Input: COc1ccc(-c2cc3cc(F)c(F)cc3[nH]2)cc1NS(=O)(=O)c1cccc(C#N)c1 . Output its pIC50 only.
Result: 6.10
